test_name: Chemical stability of the compound in phosphate buffer at pH 7.4 at 37 degC after 90 days by HPLC method
Format: physicochemical
measurement_context: read-out: Stability

molecule	remaining at […] (%)
CN1CCN(c2cccc3c2CCN(C(=O)/C=C/c2c(-n4cnnn4)ccc(Cl)c2F)[C@@H]3C(=O)Nc2ccc(C(=O)O)cc2)C(=O)C1 [BMS-962212]	99

* * *

test_name: Mean residence time in cynomolgus monkey at 2.03 mg/kg
Format: ADME, organism-based, Macaca fascicularis
measurement_context: in vivo

structure_as_smiles	MRT
CN1CCN(c2cccc3c2CCN(C(=O)/C=C/c2c(-n4cnnn4)ccc(Cl)c2F)[C@@H]3C(=O)Nc2ccc(C(=O)O)cc2)C(=O)C1	< 1 h

Ref: ChEMBL document CHEMBL4028883
